- Target Of Assay: hMAO-A (Homo sapiens)
- Construct: purchased Sigma-Aldrich
- Sequence (P21397 whole entry): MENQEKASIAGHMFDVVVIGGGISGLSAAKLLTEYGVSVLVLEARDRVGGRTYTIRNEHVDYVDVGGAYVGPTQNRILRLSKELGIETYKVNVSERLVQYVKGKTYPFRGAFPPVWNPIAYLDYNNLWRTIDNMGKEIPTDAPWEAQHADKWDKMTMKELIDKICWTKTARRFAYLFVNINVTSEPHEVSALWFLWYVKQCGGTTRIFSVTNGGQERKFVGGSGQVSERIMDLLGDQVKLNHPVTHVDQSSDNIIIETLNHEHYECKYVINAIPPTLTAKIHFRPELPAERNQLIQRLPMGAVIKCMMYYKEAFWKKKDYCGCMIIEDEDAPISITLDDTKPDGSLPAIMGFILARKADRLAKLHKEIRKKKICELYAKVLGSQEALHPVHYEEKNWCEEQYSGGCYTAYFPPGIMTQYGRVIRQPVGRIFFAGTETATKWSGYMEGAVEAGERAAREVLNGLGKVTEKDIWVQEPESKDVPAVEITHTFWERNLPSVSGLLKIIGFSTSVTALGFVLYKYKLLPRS
- Assay Info: hMAO-A inhibition, kynuramine fluorescence assay
- Assay type: biochemical
- Study Conditions: recombinant human MAO-A, kynuramine substrate; mean ± SD of three independent experiments
Outcome Measure: IC50 (µM)
Report as a plain number; the unit µM is understood.

Illustrative cases are given below, each with its answer.
Compound	Units Label	IC50
CCC(C)C(NC(=O)OCc1ccccc1)C(=O)Nc1ccc2c(COC)cc(=O)oc2c1 (centres unmarked)	µM	47
Cc1cc(=O)oc2cc(NC(=O)[C@H](C)NC(=O)OCC3c4ccccc4-c4ccccc43)ccc12	µM	54.8
COC(=O)[C@H](Cc1ccccc1)NC(=O)N[C@@H](C)C(=O)Nc1ccc2c(C)cc(=O)oc2c1	µM	21.8
COC(=O)[C@H](C)NC(=O)N[C@@H](C)C(=O)Nc1ccc2c(C)cc(=O)oc2c1	µM	69.6
COCc1cc(=O)oc2cc(NC(=O)[C@@H](NC(=O)[C@H](C)NC(=O)OCc3ccccc3)C(C)(C)C)ccc12	µM	41.3

Then this compound:
The measured IC50 associated with "COCc1cc(=O)oc2cc(NC(=O)[C@H](C)NC(C)=O)ccc12" reads 12

----------
Measured IC50, listed per entry.
- Target Of Assay: hMAO-B (Homo sapiens)
- Construct: purchased Sigma-Aldrich
- Sequence (P27338 1-520): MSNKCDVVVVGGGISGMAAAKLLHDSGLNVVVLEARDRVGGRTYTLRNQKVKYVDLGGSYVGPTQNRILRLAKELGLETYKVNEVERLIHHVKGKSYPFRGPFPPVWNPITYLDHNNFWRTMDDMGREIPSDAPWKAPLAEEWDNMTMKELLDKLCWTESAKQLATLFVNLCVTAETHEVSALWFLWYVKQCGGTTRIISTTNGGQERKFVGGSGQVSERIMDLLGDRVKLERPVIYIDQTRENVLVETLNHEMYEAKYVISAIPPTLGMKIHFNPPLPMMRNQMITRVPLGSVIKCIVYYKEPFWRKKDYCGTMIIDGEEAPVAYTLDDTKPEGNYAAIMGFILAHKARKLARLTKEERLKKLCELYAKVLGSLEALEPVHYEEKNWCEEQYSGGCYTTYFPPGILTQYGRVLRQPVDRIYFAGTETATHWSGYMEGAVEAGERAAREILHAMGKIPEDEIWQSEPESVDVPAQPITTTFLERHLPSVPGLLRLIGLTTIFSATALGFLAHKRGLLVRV
- Assay Info: hMAO-B inhibition, kynuramine fluorescence assay
- Type: biochemical
- Study Conditions: recombinant human MAO-B, kynuramine substrate; mean ± SD of three independent experiments

Illustrative cases are given below, each with its answer.
Compound	Recorded Measurement
CCOC(=O)CCNC(=O)N[C@@H](C)C(=O)Nc1ccc2c(C)cc(=O)oc2c1	> 100 µM
Cc1cc(=O)oc2cc(NC(=O)[C@H](C)NC(=O)OCC3c4ccccc4-c4ccccc43)ccc12	> 100 µM

The measured IC50 associated with CCC(C)C(NC(=O)OCc1ccccc1)C(=O)Nc1ccc2c(COC)cc(=O)oc2c1 (stereo not drawn) reads > 100 µM
